meta.source: patent US20230374038A1

STUDY TARGET: CFTR (Homo sapiens)
Sequence (P13569 with tags, fused parts or gaps DEL508-508): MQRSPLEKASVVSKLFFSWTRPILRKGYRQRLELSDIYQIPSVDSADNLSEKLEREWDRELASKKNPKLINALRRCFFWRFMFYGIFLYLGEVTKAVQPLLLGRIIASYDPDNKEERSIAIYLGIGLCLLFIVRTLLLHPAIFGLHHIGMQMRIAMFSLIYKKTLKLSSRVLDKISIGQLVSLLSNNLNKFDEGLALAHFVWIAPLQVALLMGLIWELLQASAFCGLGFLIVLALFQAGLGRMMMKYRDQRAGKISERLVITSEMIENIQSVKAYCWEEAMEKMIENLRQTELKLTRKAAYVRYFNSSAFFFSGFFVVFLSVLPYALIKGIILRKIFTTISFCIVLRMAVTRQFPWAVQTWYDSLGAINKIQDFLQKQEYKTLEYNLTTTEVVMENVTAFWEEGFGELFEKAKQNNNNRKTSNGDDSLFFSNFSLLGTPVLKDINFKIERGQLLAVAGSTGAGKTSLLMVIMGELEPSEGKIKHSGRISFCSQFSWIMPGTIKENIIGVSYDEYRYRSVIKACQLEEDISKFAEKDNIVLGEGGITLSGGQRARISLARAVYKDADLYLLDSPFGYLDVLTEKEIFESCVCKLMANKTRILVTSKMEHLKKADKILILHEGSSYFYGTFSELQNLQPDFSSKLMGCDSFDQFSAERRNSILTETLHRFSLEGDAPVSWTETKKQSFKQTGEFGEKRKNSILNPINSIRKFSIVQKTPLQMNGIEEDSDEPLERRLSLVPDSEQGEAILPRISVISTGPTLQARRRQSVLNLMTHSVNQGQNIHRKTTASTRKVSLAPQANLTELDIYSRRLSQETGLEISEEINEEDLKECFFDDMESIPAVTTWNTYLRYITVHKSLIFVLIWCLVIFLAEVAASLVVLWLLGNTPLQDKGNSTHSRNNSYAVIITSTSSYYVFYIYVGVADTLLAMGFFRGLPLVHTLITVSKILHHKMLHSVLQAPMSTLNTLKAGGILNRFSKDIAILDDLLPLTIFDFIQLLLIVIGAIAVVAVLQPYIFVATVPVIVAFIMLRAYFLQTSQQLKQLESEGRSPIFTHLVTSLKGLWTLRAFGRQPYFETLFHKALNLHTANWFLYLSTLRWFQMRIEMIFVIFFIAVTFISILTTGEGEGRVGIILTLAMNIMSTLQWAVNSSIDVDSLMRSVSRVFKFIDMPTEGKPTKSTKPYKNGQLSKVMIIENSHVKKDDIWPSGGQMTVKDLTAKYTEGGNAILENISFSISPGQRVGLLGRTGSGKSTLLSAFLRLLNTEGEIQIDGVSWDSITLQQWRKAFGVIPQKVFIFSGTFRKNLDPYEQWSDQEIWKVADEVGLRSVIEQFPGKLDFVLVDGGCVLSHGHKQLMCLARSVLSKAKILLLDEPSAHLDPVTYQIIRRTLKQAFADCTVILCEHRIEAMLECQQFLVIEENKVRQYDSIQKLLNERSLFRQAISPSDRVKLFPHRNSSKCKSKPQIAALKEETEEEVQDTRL
ASSAY METHOD TEXT: Membrane Potential Dye, Enteroid Assay A
Format: cell-based
COND: read-out: Ent. A EC50
pEC50: −log10 of the molar value.
Listed here are compounds together with their documented pEC50.

Study these solved cases before continuing.
compound=CCc1c2nc(nc1-c1c(C)cccc1C)NS(=O)(=O)c1cccc(c1)C(=O)N[C@H](CC(C)C)CO2 measured_endpoint=pEC50 test_result="> 6.00"
compound=CCc1c2nc(nc1-c1ccccc1OC)NS(=O)(=O)c1cccc(c1)NC(=O)c1cccc(c1)O2 measured_endpoint=pEC50 test_result="4.52 to 5.52"
compound=CCOc1ccccc1-c1nc2nc(c1CC)Oc1cccc(c1)C(=O)Nc1cccc(c1)S(=O)(=O)N2 measured_endpoint=pEC50 test_result="5.52 to 6.00"

Any idea what pEC50 was measured for CC(C)CCc1ccccc1-c1nc2nc(c1C(F)(F)F)OC1CN(Cc3ccccc31)C(=O)c1cccc(c1)S(=O)(=O)N2 (centres unmarked) ? > 6.00

Tell me the measured pEC50 of `CCc1c2nc(nc1-c1ccccc1C1CCC1)NS(=O)(=O)c1cccc(c1)NC(=O)c1cccc(c1)O2` , please. > 6.00

Item CCc1c2nc(nc1-c1c(C)cccc1C)NS(=O)(=O)c1cccc(c1)C(=O)NCC(c1ccc(C(C)(C)C)cc1)O2 (centres unmarked) has what recorded pEC50? > 6.00

State the recorded pEC50 for this entry: `CCc1c2nc(nc1-c1ccccc1OCC(C)C)NS(=O)(=O)c1cccc(c1)NC(=O)c1cccc(c1)O2` 5.52 to 6.00

What measured pEC50 goes with Cc1ccccc1-c1nc2nc(c1C(C)(C)C)OCC1CN(CCN1CCC1(C(F)(F)F)CC1)C(=O)c1cccc(c1)S(=O)(=O)N2 (centres unmarked) ? 5.52 to 6.00

So what's the measured pEC50 for this one? `CCc1c2nc(nc1-c1ccccc1CC(C)C)NS(=O)(=O)c1cccc(c1)NC(=O)c1cccc(c1)O2` > 6.00

Would you kindly share the measured pEC50 for `CCc1c2nc(nc1-c1c(C)cccc1C)NS(=O)(=O)c1cccc(c1)C(=O)N(C1CC3(CCN(C(=O)OC(C)(C)C)CC3)C1)[C@H](CC(C)C)CO2` ? > 6.00

Can you share its pEC50? I mean this compound: Cc1ccccc1-c1nc2nc(c1C(C)(C)C)OC1CN(Cc3ccccc31)C(=O)c1cccc(c1)S(=O)(=O)N2 (centres unmarked) > 6.00
